B1: TPR t1 (parent)
chain: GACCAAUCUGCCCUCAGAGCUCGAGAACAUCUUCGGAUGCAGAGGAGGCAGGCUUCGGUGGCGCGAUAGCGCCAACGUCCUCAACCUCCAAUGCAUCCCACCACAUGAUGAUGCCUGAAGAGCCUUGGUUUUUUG

Variants of: B1
Assay procedure: polymerase ribozyme fitness, log enrichment relative to wild type (log ratio); higher = more active; in vitro selection for triplet polymerase activity
# polymerase ribozyme fitness (log ratio) per entry
Just the number, please.

Some solved cases for reference:
[[record]]
mutation_id = "C56G C123A"
endpoint_label = "polymerase ribozyme fitness (log ratio)"
meas_value = 0.0294

[[record]]
mutation_id = "A43G A46U G63U U87A U92G G120C U130C"
endpoint_label = "polymerase ribozyme fitness (log ratio)"
meas_value = -6

[[record]]
mutation_id = "A2C U14G U54G U96G A100U G117A U126A U129G"
endpoint_label = "polymerase ribozyme fitness (log ratio)"
meas_value = -5.8


## Input // query polymerase ribozyme fitness (log ratio) value for entry C13A C20U U38A A91U C124G
## Output -1.87

## Input Next: G17A C80A
## Output -5.66

## Input Next: A37G A83C C88G U130G
## Output -4.95
